Hi there, I'd appreciate the recorded kd var/kd wt for every entry that follows.
- measurement-target: T1, human TGFβ2 (human, UniProt P61812 303-414)
- T1 construct: also called TGFβ2 homodimer
- T1 sequence: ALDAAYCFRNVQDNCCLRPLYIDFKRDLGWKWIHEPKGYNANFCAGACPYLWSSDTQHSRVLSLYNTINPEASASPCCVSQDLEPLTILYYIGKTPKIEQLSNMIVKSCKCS
- experiment-description: Biacore off-rate vs wt GC1008, 50 nM

Q. Please look at this binder and report its kd var/kd wt: D56F (antibody, V domains shown, GC1008 IgG4 variant) VH: QVQLVQSGAEVKKPGSSVKVSCKASGYTFSSNVISWVRQAPGQGLEWMGGVIPIVFIANYAQRFKGRVTITADESTSTTYMELSSLRSEDTAVYYCASTLGLVLDAMDYWGQGTLVTVSS VL: ETVLTQSPGTLSLSPGERATLSCRASQSLGSSYLAWYQQKPGQAPRLLIYGASSRAPGIPDRFSGSGSGTDFTLTISRLEPEDFAVYYCQQYADSPITFGQGTRLEIK
A. 1.5

Q. Please look at this binder and report its kd var/kd wt: D56E (antibody, V domains shown, GC1008 IgG4 variant) VH: QVQLVQSGAEVKKPGSSVKVSCKASGYTFSSNVISWVRQAPGQGLEWMGGVIPIVEIANYAQRFKGRVTITADESTSTTYMELSSLRSEDTAVYYCASTLGLVLDAMDYWGQGTLVTVSS VL: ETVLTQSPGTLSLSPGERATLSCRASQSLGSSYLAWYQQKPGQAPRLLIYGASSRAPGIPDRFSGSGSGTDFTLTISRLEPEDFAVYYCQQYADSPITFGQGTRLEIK
A. 1.2

Q. Please look at this binder and report its kd var/kd wt: D56G (antibody, V domains shown, GC1008 IgG4 variant) VH: QVQLVQSGAEVKKPGSSVKVSCKASGYTFSSNVISWVRQAPGQGLEWMGGVIPIVGIANYAQRFKGRVTITADESTSTTYMELSSLRSEDTAVYYCASTLGLVLDAMDYWGQGTLVTVSS VL: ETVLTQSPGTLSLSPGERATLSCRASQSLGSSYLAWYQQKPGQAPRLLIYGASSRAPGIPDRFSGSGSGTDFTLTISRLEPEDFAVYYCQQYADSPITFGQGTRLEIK
A. 1.5

Q. Please look at this binder and report its kd var/kd wt: S30M (antibody, V domains shown, GC1008 IgG4 variant) VH: QVQLVQSGAEVKKPGSSVKVSCKASGYTFMSNVISWVRQAPGQGLEWMGGVIPIVDIANYAQRFKGRVTITADESTSTTYMELSSLRSEDTAVYYCASTLGLVLDAMDYWGQGTLVTVSS VL: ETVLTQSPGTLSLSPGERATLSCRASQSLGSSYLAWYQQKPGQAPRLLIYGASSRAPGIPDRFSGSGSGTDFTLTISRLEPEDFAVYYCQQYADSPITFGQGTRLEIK
A. 0.9

Q. Please look at this binder and report its kd var/kd wt: Y27V (antibody, V domains shown, GC1008 IgG4 variant) VH: QVQLVQSGAEVKKPGSSVKVSCKASGVTFSSNVISWVRQAPGQGLEWMGGVIPIVDIANYAQRFKGRVTITADESTSTTYMELSSLRSEDTAVYYCASTLGLVLDAMDYWGQGTLVTVSS VL: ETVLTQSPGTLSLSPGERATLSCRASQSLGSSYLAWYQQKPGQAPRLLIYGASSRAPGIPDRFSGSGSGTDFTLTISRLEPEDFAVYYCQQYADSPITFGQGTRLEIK
A. 1.6
